- targetEntity: T1, human DR3-Fc fusion protein (human, UniProt Q93038 25-199)
- T1 construct: also called hDR3-Fc; not shown: Fc portion
- T1 sequence: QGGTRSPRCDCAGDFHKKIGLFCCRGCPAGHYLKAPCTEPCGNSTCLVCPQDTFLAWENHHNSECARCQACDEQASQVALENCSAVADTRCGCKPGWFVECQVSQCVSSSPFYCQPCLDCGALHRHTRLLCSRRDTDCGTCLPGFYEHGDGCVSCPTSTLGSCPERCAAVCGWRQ
- testName: BIAcore SPR; human DR3-Fc amine-coupled to CM5 chip, Fab in flow; ratio of average Kd

| binder | Ratio of binding relative to H0L0-Fab |
| --- | --- |
| H1.1L2-Fab (Fab, V domains shown) VH: EVQLVESGGGLVKPGGSLRLSCAASGFTFTNYAMSWVRQAPGQRLEWVSTITSGGSYIYYLDSVKGRFTISRDNAKSTLYLQMNSLRAEDTAVYYCARRKDGNYYYAMDYWGQGTTVTVSS VL: DIVLTQSPSSLSASVGDRVTITCRASESVDSYGNSFIHWYQQKPGQPPKLLIYRASNLESGIPARFSGSGSRTDFTLTISSLQPEDFATYYCQQSYEDPWTFGGGTKLEIKR | 0.85 |
| H5.3L4-Fab (Fab, V domains shown) VH: EVMLLQSGAEVKKPGASVKVSCKASGFTFTNYAMSWVRQAPGQRLEWVATITSGGSYIYYLDSVKGRFTISRDNAKSTLHLQMNSLRAEDTAVYYCARRKDGNYYYAMDYWGQGTTVTVSS VL: DIVLTQTPLSLSVTPGQPASISCRASESVDSYGNSFIHWYQQKPGQPPKLLIYRASNLESGIPARFSGSGSRTDFTLKISRVEAEDVGVYYCQQSYEDPWTFGGGTKLEIKR | 1.28 |
| H1.1L4-Fab (Fab, V domains shown) VH: EVQLVESGGGLVKPGGSLRLSCAASGFTFTNYAMSWVRQAPGQRLEWVSTITSGGSYIYYLDSVKGRFTISRDNAKSTLYLQMNSLRAEDTAVYYCARRKDGNYYYAMDYWGQGTTVTVSS VL: DIVLTQTPLSLSVTPGQPASISCRASESVDSYGNSFIHWYQQKPGQPPKLLIYRASNLESGIPARFSGSGSRTDFTLKISRVEAEDVGVYYCQQSYEDPWTFGGGTKLEIKR | 0.94 |
